test system: Human alphaherpesvirus 1; experiment: Binding affinity to recombinant HSV1 glycoprotein D (21 to 339 residues) assessed as change in intrinsic tryptophan fluorescence by spectrofluorimetric method
metric: %max (%)
Write the answer as a number in %, unit excluded.

Field: example entries. Status: answers known.
compound | system.name | unit.of.measurement | %max
CO[C@H]1O[C@H](COS(=O)(=O)O)[C@@H](O[C@@H]2O[C@@H](C(=O)O)[C@@H](O[C@H]3O[C@H](COS(=O)(=O)O)[C@@H](O[C@@H]4O[C@H](C(=O)O)[C@@H](O[C@H]5O[C@H](COS(=O)(=O)O)[C@@H](O)[C@H](O)[C@H]5NS(=O)(=O)O)[C@H](O)[C@H]4O)[C@H](OS(=O)(=O)O)[C@H]3NS(=O)(=O)O)[C@H](O)[C@H]2OS(=O)(=O)O)[C@H](O)[C@H]1NS(=O)(=O)O [FONDAPARINUX SODIUM] | Human alphaherpesvirus 1 | % | -85
O=C(OC1[C@@H](OC(=O)c2cc(OS(=O)(=O)O)cc(OS(=O)(=O)O)c2)[C@@H](OC(=O)c2ccc(OS(=O)(=O)O)cc2OS(=O)(=O)O)C(OC(=O)c2cc(OS(=O)(=O)O)cc(OS(=O)(=O)O)c2)[C@H](OC(=O)c2cc(OS(=O)(=O)O)cc(OS(=O)(=O)O)c2)[C@H]1OC(=O)c1cc(OS(=O)(=O)O)cc(OS(=O)(=O)O)c1)c1cc(OS(=O)(=O)O)cc(OS(=O)(=O)O)c1 (single isomer, unassigned) | Human alphaherpesvirus 1 | % | 328

Next:
Please give the measured %max for this compound: CC1OC[C@H]2O[C@H](OC(=O)c3cc(OS(=O)(=O)O)cc(OS(=O)(=O)O)c3)[C@H](OC(=O)c3cc(OS(=O)(=O)O)cc(OS(=O)(=O)O)c3)[C@@H](OC(=O)c3cc(OS(=O)(=O)O)cc(OS(=O)(=O)O)c3)[C@@H]2O1 (stereo partly drawn)
87

====

experiment: Binding affinity to recombinant HSV1 glycoprotein D (21 to 339 residues) assessed as change in intrinsic tryptophan fluorescence by spectrofluorimetric method; set-up: species or system Human alphaherpesvirus 1
metric: Kd (nM)

1. CCOC(=O)c1c(C)oc2cc(OCc3cccc(OS(=O)(=O)O)c3)c(OCc3oc4cc(OC)c(OS(=O)(=O)O)cc4c3C(=O)OCC)cc12
2. Cc1cc(Oc2cc3c(=O)c(OS(=O)(=O)O)c(-c4ccc(OS(=O)(=O)O)c(OS(=O)(=O)O)c4)oc3cc2OS(=O)(=O)O)c(C)cc1COc1cc(OS(=O)(=O)O)cc2oc(-c3ccc(OS(=O)(=O)O)c(OS(=O)(=O)O)c3)c(OS(=O)(=O)O)c(=O)c12
3. O=S(=O)(O)OC[C@H]1O[C@@](COS(=O)(=O)O)(O[C@@H]2O[C@H](COS(=O)(=O)O)[C@@H](OS(=O)(=O)O)[C@H](OS(=O)(=O)O)[C@H]2OS(=O)(=O)O)[C@@H](OS(=O)(=O)O)[C@@H]1OS(=O)(=O)O
4. CCOC(=O)c1c(C)oc2cc(OCc3ccccc3)c(OCCCOc3cc(OS(=O)(=O)O)cc4oc(-c5ccc(OS(=O)(=O)O)cc5)cc(=O)c34)cc12
Order the 4 compounds from highest to lowest Kd. Present the labels in the sequence the task asks for.
1, 4, 3, 2

====

test system: Human alphaherpesvirus 1; test: Binding affinity to recombinant HSV1 glycoprotein D (21 to 339 residues) assessed as change in intrinsic tryptophan fluorescence by spectrofluorimetric method
metric: %max (%)

# example entries with known answers
sample.smiles | recorded.measurement
CCOC(=O)c1c(C)oc2cc(OCc3cccc(OS(=O)(=O)O)c3)c(OCc3oc4cc(OC)c(OS(=O)(=O)O)cc4c3C(=O)OCC)cc12 | -112
O=C(O[C@@H]1[C@@H](OC(=O)c2cc(OS(=O)(=O)O)cc(OS(=O)(=O)O)c2)[C@H](OC(=O)c2cc(OS(=O)(=O)O)cc(OS(=O)(=O)O)c2)[C@@H](OC(=O)c2ccc(OS(=O)(=O)O)cc2OS(=O)(=O)O)[C@H](OC(=O)c2cc(OS(=O)(=O)O)cc(OS(=O)(=O)O)c2)[C@H]1OC(=O)c1cc(OS(=O)(=O)O)cc(OS(=O)(=O)O)c1)c1cc(OS(=O)(=O)O)cc(OS(=O)(=O)O)c1 | 53

a. Cc1cc(Oc2cc3c(=O)c(OS(=O)(=O)O)c(-c4ccc(OS(=O)(=O)O)c(OS(=O)(=O)O)c4)oc3cc2OS(=O)(=O)O)c(C)cc1COc1cc(OS(=O)(=O)O)cc2oc(-c3ccc(OS(=O)(=O)O)c(OS(=O)(=O)O)c3)c(OS(=O)(=O)O)c(=O)c12
b. O=S(=O)(O)OC[C@H]1O[C@@](COS(=O)(=O)O)(O[C@@H]2O[C@H](COS(=O)(=O)O)[C@@H](OS(=O)(=O)O)[C@H](OS(=O)(=O)O)[C@H]2OS(=O)(=O)O)[C@@H](OS(=O)(=O)O)[C@@H]1OS(=O)(=O)O
c. CCOC(=O)c1c(C)oc2cc(OCc3ccccc3)c(OCCCOc3cc(OS(=O)(=O)O)cc4oc(-c5ccc(OS(=O)(=O)O)cc5)cc(=O)c34)cc12
# ascending order, key=%max # list labels per requested ordering
c, a, b
(c: -157%, a: -82%, b: -52%)

====

Listed next: entries and their corresponding pKd.
test: Binding affinity to recombinant HSV1 glycoprotein D (21 to 339 residues) assessed as change in intrinsic tryptophan fluorescence by spectrofluorimetric method; design: species or system Human alphaherpesvirus 1
Reminder that pKd is minus the log10 of a molar concentration.

Known pKd results, listed for orientation:
compound | pKd
CC1OC[C@H]2O[C@H](OC(=O)c3cc(OS(=O)(=O)O)cc(OS(=O)(=O)O)c3)[C@H](OC(=O)c3cc(OS(=O)(=O)O)cc(OS(=O)(=O)O)c3)[C@@H](OC(=O)c3cc(OS(=O)(=O)O)cc(OS(=O)(=O)O)c3)[C@@H]2O1 (some centres undefined) | 7.59
CO[C@H]1O[C@H](COS(=O)(=O)O)[C@@H](O[C@@H]2O[C@@H](C(=O)O)[C@@H](O[C@H]3O[C@H](COS(=O)(=O)O)[C@@H](O[C@@H]4O[C@H](C(=O)O)[C@@H](O[C@H]5O[C@H](COS(=O)(=O)O)[C@@H](O)[C@H](O)[C@H]5NS(=O)(=O)O)[C@H](O)[C@H]4O)[C@H](OS(=O)(=O)O)[C@H]3NS(=O)(=O)O)[C@H](O)[C@H]2OS(=O)(=O)O)[C@H](O)[C@H]1NS(=O)(=O)O [FONDAPARINUX SODIUM] | 6.30
O=C(OC1[C@@H](OC(=O)c2cc(OS(=O)(=O)O)cc(OS(=O)(=O)O)c2)[C@@H](OC(=O)c2ccc(OS(=O)(=O)O)cc2OS(=O)(=O)O)C(OC(=O)c2cc(OS(=O)(=O)O)cc(OS(=O)(=O)O)c2)[C@H](OC(=O)c2cc(OS(=O)(=O)O)cc(OS(=O)(=O)O)c2)[C@H]1OC(=O)c1cc(OS(=O)(=O)O)cc(OS(=O)(=O)O)c1)c1cc(OS(=O)(=O)O)cc(OS(=O)(=O)O)c1 (single isomer, unassigned) | 6.95

Alright, here's another compound for you.
Recorded pKd for O=C(O[C@@H]1[C@@H](OC(=O)c2cc(OS(=O)(=O)O)cc(OS(=O)(=O)O)c2)[C@H](OC(=O)c2cc(OS(=O)(=O)O)cc(OS(=O)(=O)O)c2)[C@@H](OC(=O)c2ccc(OS(=O)(=O)O)cc2OS(=O)(=O)O)[C@H](OC(=O)c2cc(OS(=O)(=O)O)cc(OS(=O)(=O)O)c2)[C@H]1OC(=O)c1cc(OS(=O)(=O)O)cc(OS(=O)(=O)O)c1)c1cc(OS(=O)(=O)O)cc(OS(=O)(=O)O)c1 , please?
8.10
